The origin of these recorded values is patent US5869448A.

Kindly supply the reported Relative Potency values for the records listed here.
Molecular target: VLA-4/CS-1 (Homo sapiens, UniProt P05556+P13612)
Construct: inflammatory cells that contain the VLA-4 receptor [Jurkat cells; host or cells: Jurkat (human T lymphoblastic line)
Sequence (P13612 34-1032): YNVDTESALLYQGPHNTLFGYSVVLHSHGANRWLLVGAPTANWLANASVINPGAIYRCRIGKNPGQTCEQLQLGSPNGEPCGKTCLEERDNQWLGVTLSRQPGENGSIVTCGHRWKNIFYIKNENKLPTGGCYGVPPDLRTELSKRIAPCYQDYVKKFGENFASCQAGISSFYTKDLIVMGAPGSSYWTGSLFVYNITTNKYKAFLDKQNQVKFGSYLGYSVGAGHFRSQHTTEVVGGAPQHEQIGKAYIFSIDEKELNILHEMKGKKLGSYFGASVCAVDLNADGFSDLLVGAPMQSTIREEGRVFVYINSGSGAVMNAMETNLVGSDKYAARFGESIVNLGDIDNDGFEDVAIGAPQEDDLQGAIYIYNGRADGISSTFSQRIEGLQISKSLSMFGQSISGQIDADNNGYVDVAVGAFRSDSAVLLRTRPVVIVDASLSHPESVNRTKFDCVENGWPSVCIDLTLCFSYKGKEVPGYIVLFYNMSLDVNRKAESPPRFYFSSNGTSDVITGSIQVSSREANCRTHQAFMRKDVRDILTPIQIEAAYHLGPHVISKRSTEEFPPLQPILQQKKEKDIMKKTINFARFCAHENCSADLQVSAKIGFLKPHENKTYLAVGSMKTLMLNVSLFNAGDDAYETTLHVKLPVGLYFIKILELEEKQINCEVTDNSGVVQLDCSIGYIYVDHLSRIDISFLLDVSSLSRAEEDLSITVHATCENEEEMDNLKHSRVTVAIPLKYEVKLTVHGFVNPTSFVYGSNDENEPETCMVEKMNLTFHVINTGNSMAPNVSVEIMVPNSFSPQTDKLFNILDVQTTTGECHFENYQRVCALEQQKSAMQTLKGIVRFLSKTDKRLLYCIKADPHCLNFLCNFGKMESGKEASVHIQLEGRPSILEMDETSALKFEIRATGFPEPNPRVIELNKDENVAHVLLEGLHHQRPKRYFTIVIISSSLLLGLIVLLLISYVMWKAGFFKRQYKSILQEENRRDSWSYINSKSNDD
Sequence (P05556 21-798): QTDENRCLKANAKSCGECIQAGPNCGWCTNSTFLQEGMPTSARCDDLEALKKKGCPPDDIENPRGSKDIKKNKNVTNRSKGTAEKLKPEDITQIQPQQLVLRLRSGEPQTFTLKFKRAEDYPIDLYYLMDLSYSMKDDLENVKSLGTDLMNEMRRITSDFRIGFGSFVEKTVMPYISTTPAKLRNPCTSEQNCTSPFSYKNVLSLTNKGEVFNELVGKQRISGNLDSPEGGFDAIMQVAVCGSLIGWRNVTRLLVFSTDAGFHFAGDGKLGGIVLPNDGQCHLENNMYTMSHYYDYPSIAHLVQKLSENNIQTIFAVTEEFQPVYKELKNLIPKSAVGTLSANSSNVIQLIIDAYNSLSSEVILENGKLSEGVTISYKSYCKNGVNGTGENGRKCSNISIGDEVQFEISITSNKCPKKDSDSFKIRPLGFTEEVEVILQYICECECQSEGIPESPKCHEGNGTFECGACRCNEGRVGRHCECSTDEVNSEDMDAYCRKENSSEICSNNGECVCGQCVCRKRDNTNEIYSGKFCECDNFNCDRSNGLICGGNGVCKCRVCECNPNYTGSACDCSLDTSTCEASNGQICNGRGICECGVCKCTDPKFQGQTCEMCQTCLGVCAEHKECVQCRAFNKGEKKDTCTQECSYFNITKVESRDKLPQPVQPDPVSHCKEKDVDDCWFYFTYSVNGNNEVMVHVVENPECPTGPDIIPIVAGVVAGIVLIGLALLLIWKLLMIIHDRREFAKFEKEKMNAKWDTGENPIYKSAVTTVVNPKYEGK
Experiment: In vitro inhibition of binding of 51Cr-labeled Jurkat cells to solid phase-bound CS-1 peptide
Format: cell-based
Details: Table 2; normalized, relative to standard peptide of SEQ ID NO:6
Positions of bridges follow the written chain, without caps; N, C: chain ends. Non-standard residues stand in square brackets, D forms with d. Residues, ends and D or L forms follow the SMILES beside them. *: point of attachment. PhAc = O=C(Cc1ccccc1)*
Give a plain numeric answer without units written out.

The recorded Relative Potency for NC(=O)[C@@H]1CSSC[C@H](NC(=O)Cc2ccccc2)C(=O)N[C@@H](CC(=O)O)C(=O)N[C@@H](Cc2ccccc2)C(=O)N1 [SEQ ID NO:7, N-phenylacetyl-Cys-Asp-Phe-Cys-NH2] (PhAc-CDFC-NH2; disulfide 1-4) is 954

The recorded Relative Potency for CC(C)C[C@@H]1NC(=O)[C@H](Cc2ccccc2)NC(=O)[C@@H](N)CSSC[C@@H](C(N)=O)NC(=O)[C@H]([C@@H](C)O)NC(=O)[C@H](CO)NC(=O)[C@@H]2CCCN2C(=O)[C@H](Cc2ccccc2)NC(=O)[C@H](CC(=O)O)NC1=O [SEQ ID NO:15, CFLDFPSTC--NH2] (H-CFLDFPSTC-NH2; disulfide 1-9) is 81.4

The recorded Relative Potency for O=C(O)C[C@@H]1NC(=O)[C@@H](NC(=O)Cc2ccccc2)CSCCNC(=O)[C@H](Cc2ccccc2)NC1=O is 16.1

The recorded Relative Potency for CC(C)C[C@@H]1NC(=O)[C@H](Cc2ccccc2)NC(=O)[C@@H](N)CSSC[C@@H](C(=O)N2CCC[C@H]2C(N)=O)NC(=O)[C@H](CC(=O)O)NC1=O (H-CFLDCP-NH2; disulfide 1-5) is 0

The recorded Relative Potency for CC(=O)N[C@H]1CSSC[C@@H](C(=O)N2CCC[C@@H]2C(N)=O)NC(=O)[C@H](CC(=O)O)NC(=O)[C@H](CC(C)C)NC1=O (Ac-CLDC[dP]-NH2; disulfide 1-4) is 0

The recorded Relative Potency for CC(C)C[C@@H]1NC(=O)[C@H](Cc2ccccc2)NC(=O)[C@H](CCC(=O)O)NC(=O)[C@@H]2CCCN2C(=O)[C@@H](N)CSSC[C@@H](C(N)=O)NC(=O)[C@H](Cc2ccccc2)NC(=O)[C@H](CC(=O)O)NC1=O (H-CPEFLDFC-NH2; disulfide 1-8) is 56.3
